meta.source: patent US20260258124A1

- Assay system: T1, human recombinant CD117 (c-Kit) from Sino Biological (Catalog No. 11996-H08H) (human, UniProt P10721 26-524)
- T1 construct: also called soluble antigen
- T1 sequence (P10721 26-524 limits assumed): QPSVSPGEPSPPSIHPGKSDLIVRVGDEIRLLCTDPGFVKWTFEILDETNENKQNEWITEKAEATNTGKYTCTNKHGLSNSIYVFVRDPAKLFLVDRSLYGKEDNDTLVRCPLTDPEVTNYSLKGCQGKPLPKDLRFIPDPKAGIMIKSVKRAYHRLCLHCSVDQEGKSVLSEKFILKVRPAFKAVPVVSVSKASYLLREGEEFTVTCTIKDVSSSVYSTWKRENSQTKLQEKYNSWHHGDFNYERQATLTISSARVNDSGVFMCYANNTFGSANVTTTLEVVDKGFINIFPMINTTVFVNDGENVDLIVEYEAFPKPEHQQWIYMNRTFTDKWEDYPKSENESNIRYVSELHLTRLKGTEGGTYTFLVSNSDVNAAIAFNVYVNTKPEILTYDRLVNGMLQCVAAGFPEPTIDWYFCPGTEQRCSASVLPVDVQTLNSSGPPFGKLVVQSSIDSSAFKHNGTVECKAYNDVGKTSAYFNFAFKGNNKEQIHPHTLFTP
- Method summary: BLI Octet, set-up as in Example 2
- Protocol: In the main experiment kinetic assays were performed by first capturing IgG using anti-human Fc biosensors. The mAb capture biosensors were then submerged in wells containing different concentrations of antigen (association stage) followed by a dissociation step in running buffer. […] Dissociation rate constants (Kd) were calculated using the ForteBio Data Analysis software. […]
Please provide measured Kd for the entries that follow.
Give your result in nM as a bare value.

Query: Give the measured Kd of Piz Zupo (antibody, V domains shown, IgG; also called VH1/VL1.25) VH: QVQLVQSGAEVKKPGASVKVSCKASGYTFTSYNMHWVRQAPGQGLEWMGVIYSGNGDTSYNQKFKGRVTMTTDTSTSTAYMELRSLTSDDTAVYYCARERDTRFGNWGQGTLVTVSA VL: EIVLTQSPSSLSASVGDRVTITCRASESVDIYGQSFMHWYQQKPGKAPKLLIYLASNLESGVPSRFSGSGSGTDFTLTISSLQPEDFATYYCQQNKEEPYTFGQGTKLEIKR .
Response: 1.1

Query: Entry Finsteraarhor (antibody, V domains shown, IgG; also called VH1/VL1.10; VH1/LC1.10) VH: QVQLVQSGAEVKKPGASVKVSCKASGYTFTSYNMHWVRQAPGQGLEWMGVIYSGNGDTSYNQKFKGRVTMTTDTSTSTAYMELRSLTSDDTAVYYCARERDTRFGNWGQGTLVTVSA VL: EIVLTQSPSSLSASVGDRVTITCRASESVDIYGNSFMHWYQQKPGKAPKLLIYLASNLESGVPSRFSGSGSGTDFTLTISSLQPEDFATYYCQQRNEDPYTFGQGTKLEIKR has what Kd?
Response: 4
